test system: HeLa MZ; assay: filipin (cholesterol) integrated intensity within LBPA endosomes, Z-score; higher = more cholesterol in LBPA endosomes; settings: compound concentration in added solution (µM; 5 µl added to 20 µl cells): 10; 18 h
Structures can show the parent of a compound that is named as a salt.
Exercise: state measured filipin (z-score) for each of the compounds provided.
Could you keep your reply to the number by itself?

So what's the measured filipin (z-score) for this one? NC[C@@H]1O[C@H](O[C@H]2[C@@H](O)[C@H](O[C@@H]3[C@@H](O)[C@H](N)C[C@H](N)[C@H]3O[C@H]3O[C@H](CO)[C@@H](O)[C@H](O)[C@H]3N)O[C@@H]2CO)[C@H](N)[C@@H](O)[C@@H]1O [Paromomycin sulfate]
-0.447

So what's the measured filipin (z-score) for this one? CN1CCOC(c2ccccc2)c2ccccc2C1 (centres undefined) [Nefopam hydrochloride]
-0.197

So what's the measured filipin (z-score) for this one? Nc1nc(N)c2nc(-c3ccccc3)c(N)nc2n1 [Triamterene]
-0.487

So what's the measured filipin (z-score) for this one? CC(=O)O[C@]1(C(C)=O)CC[C@H]2[C@@H]3C=C(C)C4=CC(=O)CC[C@]4(C)[C@H]3CC[C@@]21C [Megestrol acetate]
-0.342

###

test system: HeLa MZ; test: whole-cell filipin (free cholesterol) integrated intensity, Z-score; higher = more cholesterol staining; conditions: compound concentration in added solution (µM; 5 µl added to 20 µl cells): 10; 18 h
Structures can show the parent of a compound that is named as a salt.
measured.parameter: whole-cell filipin (z-score)
Could you keep your reply to the number by itself?

Tell me reported whole-cell filipin (z-score) for Cc1cnc(C(=O)O)c[n+]1[O-] , tested with HeLa MZ.
-0.464

Tell me reported whole-cell filipin (z-score) for Fc1ccc(C(c2ccc(F)cc2)N2CCN(C/C=C/c3ccccc3)CC2)cc1 [Flunarizine dihydrochloride] , tested with HeLa MZ.
-0.958

Tell me reported whole-cell filipin (z-score) for COc1ccc(-c2ccc(=N)n(CCCC(=O)O)n2)cc1 [Gabazine bromide] , tested with HeLa MZ.
-0.576

Tell me reported whole-cell filipin (z-score) for CNCCc1ccccn1 [Betahistine mesylate] , tested with HeLa MZ.
-0.285

Tell me reported whole-cell filipin (z-score) for Cc1nnc(SCC2=C(C(=O)O)N3C(=O)[C@@H](NC(=O)Cn4cnnn4)[C@H]3SC2)s1 [Cefazolin sodium salt] , tested with HeLa MZ.
-0.218

Tell me reported whole-cell filipin (z-score) for CC(COc1ccccc1)NC(C)C(O)c1ccc(O)cc1 (configuration not stated) [Isoxsuprine hydrochloride] , tested with HeLa MZ.
-0.465

Tell me reported whole-cell filipin (z-score) for OCCN1CCN(CCCN2c3ccccc3Sc3ccc(Cl)cc32)CC1 , tested with HeLa MZ.
-0.434

Tell me reported whole-cell filipin (z-score) for CCC(=O)OCC(=O)[C@@]1(OC(=O)CC)[C@@H](C)C[C@H]2[C@@H]3CCC4=CC(=O)C=C[C@]4(C)[C@@]3(Cl)[C@@H](O)C[C@@]21C [Beclomethasone dipropionate] , tested with HeLa MZ.
-0.00746

Tell me reported whole-cell filipin (z-score) for C=C1c2c(Cl)ccc(O)c2C(=O)C2=C(O)[C@]3(O)C(=O)C(C(N)=O)=C(O)[C@@H](N(C)C)[C@@H]3[C@@H](O)[C@H]12.O=C(O)c1cc(S(=O)(=O)O)ccc1O [Meclocycline sulfosalicylate] , tested with HeLa MZ.
-1.34

Tell me reported whole-cell filipin (z-score) for Clc1ccccc1C(c1ccccc1)(c1ccccc1)n1ccnc1 , tested with HeLa MZ.
0.216

Tell me reported whole-cell filipin (z-score) for CCOC(=O)C1=C(C)NC(C)=C(C(=O)OC)C1c1cccc(Cl)c1Cl (configuration not stated) , tested with HeLa MZ.
-0.774

Tell me reported whole-cell filipin (z-score) for CCOc1ccc2c(c1)C(C)=CC(C)(C)N2 , tested with HeLa MZ.
-0.546

Tell me reported whole-cell filipin (z-score) for NCc1ccccc1CC(=O)N[C@@H]1C(=O)N2C(C(=O)O)=C(CSc3nnnn3CC(=O)O)CS[C@H]12 [Ceforanide] , tested with HeLa MZ.
-0.285

Tell me reported whole-cell filipin (z-score) for Nc1nc(=O)c2c([nH]1)NC[C@@H](CNc1ccc(C(=O)N[C@@H](CCC(=O)O)C(=O)O)cc1)N2C=O [Folinic acid calcium salt] , tested with HeLa MZ.
-0.13

Tell me reported whole-cell filipin (z-score) for CO[C@H]1/C=C/O[C@@]2(C)Oc3c(C)c(O)c4c(O)c(c5c(nc6cc(C)ccn65)c4c3C2=O)NC(=O)/C(C)=C\C=C\[C@H](C)[C@H](O)[C@@H](C)[C@@H](O)[C@@H](C)[C@H](OC(C)=O)[C@@H]1C , tested with HeLa MZ.
0.344

Tell me reported whole-cell filipin (z-score) for CC(=O)NC[C@H]1CN(c2ccc(N3CCOCC3)c(F)c2)C(=O)O1 , tested with HeLa MZ.
-0.713

Tell me reported whole-cell filipin (z-score) for CCCCNc1ccc(C(=O)OCCN(C)C)cc1 [Tetraca? hydrochloride] , tested with HeLa MZ.
-0.308

Tell me reported whole-cell filipin (z-score) for COCCCC/C(=N\OCCN)c1ccc(C(F)(F)F)cc1 [Fluvoxamine maleate] , tested with HeLa MZ.
0.282

Tell me reported whole-cell filipin (z-score) for CCOC(=O)c1ccc(N)cc1 , tested with HeLa MZ.
-0.36

Tell me reported whole-cell filipin (z-score) for CS(=O)(=O)c1ccc([C@@H](O)[C@@H](CO)NC(=O)C(Cl)Cl)cc1 , tested with HeLa MZ.
-0.526

Tell me reported whole-cell filipin (z-score) for CO[C@H]1/C=C/O[C@@]2(C)Oc3c(C)c(O)c4c(O)c(c(/C=N/N5CCN(C)CC5)c(O)c4c3C2=O)NC(=O)/C(C)=C\C=C\[C@H](C)[C@H](O)[C@@H](C)[C@@H](O)[C@@H](C)[C@H](OC(C)=O)[C@@H]1C , tested with HeLa MZ.
-0.372

Tell me reported whole-cell filipin (z-score) for C#C[C@]1(O)CC[C@H]2[C@@H]3CCC4=CC(=O)CC[C@@H]4[C@H]3CC[C@@]21C , tested with HeLa MZ.
-0.306

Tell me reported whole-cell filipin (z-score) for CN(C)CCCN1c2ccccc2CCc2ccc(Cl)cc21 [Clomipramine hydrochloride] , tested with HeLa MZ.
-0.141

Tell me reported whole-cell filipin (z-score) for CCCN(CCC)C(=O)C(CCC(=O)O)NC(=O)c1ccccc1 (configuration not stated) [Proglumide] , tested with HeLa MZ.
-0.766

Tell me reported whole-cell filipin (z-score) for C[N+](C)(C)CCCCCC[N+](C)(C)C [Hexamethonium dibromide dihydrate] , tested with HeLa MZ.
-0.775

Tell me reported whole-cell filipin (z-score) for C[N+](C)(CCOc1ccccc1)Cc1ccccc1.O=C([O-])c1cc2ccccc2cc1O [Bephenium hydroxynaphthoate] , tested with HeLa MZ.
-0.145

Tell me reported whole-cell filipin (z-score) for CC(N)CCCC(C)(C)O (configuration not stated) [Heptaminol hydrochloride] , tested with HeLa MZ.
-0.285

FYI, the data here is from the supplement of paper PMC6607015.
